Kindly supply the reported activation values for the records listed here.
# Subject Of Test: Glucocorticoid receptor (Homo sapiens) (UniProt P04150)
# Sequence (P04150 whole entry, looked up): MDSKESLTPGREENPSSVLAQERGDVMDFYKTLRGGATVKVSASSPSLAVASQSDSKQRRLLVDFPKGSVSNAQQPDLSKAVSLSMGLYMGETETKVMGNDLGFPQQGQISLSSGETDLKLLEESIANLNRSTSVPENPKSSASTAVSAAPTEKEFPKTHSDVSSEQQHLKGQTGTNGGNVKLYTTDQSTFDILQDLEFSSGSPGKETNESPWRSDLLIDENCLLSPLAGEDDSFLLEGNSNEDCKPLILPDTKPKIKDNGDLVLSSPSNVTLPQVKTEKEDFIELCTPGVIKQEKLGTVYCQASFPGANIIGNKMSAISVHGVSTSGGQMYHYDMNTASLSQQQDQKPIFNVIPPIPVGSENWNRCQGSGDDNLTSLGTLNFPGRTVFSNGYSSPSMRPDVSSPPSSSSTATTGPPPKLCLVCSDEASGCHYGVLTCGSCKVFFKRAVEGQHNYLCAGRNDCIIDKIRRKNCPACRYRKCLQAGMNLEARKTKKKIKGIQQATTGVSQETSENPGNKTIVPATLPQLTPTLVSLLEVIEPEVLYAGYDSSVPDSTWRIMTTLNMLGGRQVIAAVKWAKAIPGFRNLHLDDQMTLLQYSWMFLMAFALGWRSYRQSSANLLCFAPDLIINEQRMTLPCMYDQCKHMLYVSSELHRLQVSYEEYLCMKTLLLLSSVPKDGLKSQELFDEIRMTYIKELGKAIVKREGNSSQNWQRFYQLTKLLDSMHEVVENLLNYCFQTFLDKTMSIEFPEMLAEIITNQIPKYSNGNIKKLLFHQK
# Test Summary: qHTS assay for small molecule agonists of glucocorticoid receptor signaling (AID 588532);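 also: 100% = dexamethasone at 0.1 µM and 0% = DMSO only wells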
# Condition Summary: HeLa MMTV-bla, beta-lactamase ratio, agonist, 18 h; stronger effect = higher value; percent of dexamethasone control, DMSO zero
Inconclusive results are not listed.
// return numeric value only (unit: %, not printed)

Input: Identify measured activation corresponding to CCCCCC/C(C=O)=C\c1ccccc1
Output: -2.77

Input: Identify measured activation corresponding to CC/C(=C(\c1ccccc1)c1ccc(OCCN(C)C)cc1)c1ccc(O)cc1
Output: 5.28

Input: Identify measured activation corresponding to O=c1oc2cc(O)ccc2c2oc3cc(O)ccc3c12
Output: -5.79

----------
# Test Summary: Cell Viability - LYMP2-026 (AID 989);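 also: cells exposed to compound for 24 h at 37 °C; nearly all actives have a fitted effect of over 50% in size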
# Condition Summary: LYMP2-026 lymphoblastoid cell viability, qHTS; series mostly up to 92.2 µM
# Excerpt: NIH Chemical Genomics Center [NCGC] NIH Molecular Libraries Screening Centers Network [MLSCN] National Institutes of Environmental Health Sciences [NIEHS] National Toxicology Program [NTP] We have developed a 1536-well cell-based assay for quantitative high throughput screening (qHTS) against a number of cell lines to determine in vitro cytotoxicity of small molecules. […] 8. Detection; Luminescence; Viewlux plate reader […]
Inconclusive results are not listed. Activity calls are given as the source filed them. Calls follow the shape of the dose curve; as a rule, active = well fitted cell-killing curve with a large enough effect; inconclusive = small, poorly fitted or top-dose-only effect; inactive = flat fitted curve, though single readings scatter.
Your answer must be one of the following: TRUE (active), FALSE (inactive)

Input: Dear colleague, could you share the recorded outcome for Nc1ccc2cc3ccccc3cc2c1 when you have a moment?
Output: FALSE

Input: Dear colleague, could you share the recorded outcome for O=C(OCC(COC(=O)c1ccccc1)(COC(=O)c1ccccc1)COC(=O)c1ccccc1)c1ccccc1 when you have a moment?
Output: FALSE

Input: Dear colleague, could you share the recorded outcome for CCCCCCCC[N+](CCCCCCCC)(CCCCCCCC)CCCCCCCC when you have a moment?
Output: TRUE

Input: Dear colleague, could you share the recorded outcome for O=C1OC(O)C(C(Cl)Cl)=C1Cl (stereo not given) when you have a moment?
Output: TRUE

Input: Dear colleague, could you share the recorded outcome for O=C=Nc1ccc(Cc2ccc(N=C=O)cc2)cc1 when you have a moment?
Output: FALSE

Input: Dear colleague, could you share the recorded outcome for c1ccc2c(c1)ccc1cc3c(ccc4ccccc43)cc12 when you have a moment?
Output: FALSE

Input: Dear colleague, could you share the recorded outcome for C/C=C1\C(=O)C[C@H]2[C@@H]3CCC4=CC(=O)CC[C@]4(C)[C@H]3CC[C@]12C when you have a moment?
Output: FALSE

Input: Dear colleague, could you share the recorded outcome for CN1[C@H]2CC(OC(=O)[C@H](CO)c3ccccc3)C[C@H]1[C@H]1O[C@H]12 (stereo not given in full) when you have a moment?
Output: FALSE

Input: Dear colleague, could you share the recorded outcome for Cc1cccc(O)c1C when you have a moment?
Output: FALSE

Input: Dear colleague, could you share the recorded outcome for CN(C)c1ccc(C2(c3ccc(N(C)C)cc3)OC(=O)c3cc(N(C)C)ccc32)cc1 when you have a moment?
Output: FALSE

Input: Dear colleague, could you share the recorded outcome for CNc1ccc(O)cc1 when you have a moment?
Output: TRUE

Input: Dear colleague, could you share the recorded outcome for CCC(C)Nc1ccc(NC(C)CC)cc1 (stereo not given) when you have a moment?
Output: TRUE

Input: Dear colleague, could you share the recorded outcome for O=C1OC2(c3cc(Br)c(O)c(Br)c3Oc3c2cc(Br)c(O)c3Br)c2c(Cl)c(Cl)c(Cl)c(Cl)c21 when you have a moment?
Output: FALSE

Input: Dear colleague, could you share the recorded outcome for C=CC(=O)OCCOCCOC(=O)C=C when you have a moment?
Output: TRUE

Input: Dear colleague, could you share the recorded outcome for CC(=O)Nc1ccc(C(=O)CCl)cc1 when you have a moment?
Output: TRUE

----------
# Test system: CP215
# Test Summary: qHTS profiling for inhibitors of Plasmodium falciparum proliferation (AID 504749); also: nearly all actives have a fitted effect of over 60% in size
# Condition Summary: P. falciparum in erythrocytes, SYBR Green DNA, 72 h; series mostly up to 28.7 µM
# Procedure: NIH National Institute of Allergy and Infectious Diseases [NIAID] NIH Chemical Genomics Center [NCGC] […] Because mature erythrocytes lack DNA, only Plasmodium-derived DNA is detected. NCGC Assay Protocol Summary: The SYBR Green viability assay was adapted from a method described previously (Plouffe et al., 2008). […] The following morning, fluorescence intensity at 485(14) nm excitation and 535(25) nm emission wavelengths was measured on an EnVision (Perkin Elmer) plate reader. […]
Records with an inconclusive call do not appear. Calls of active or inactive are those of the source. Calls follow the shape of the dose curve; as a rule, active = well fitted inhibition curve with a large enough effect; inconclusive = small, poorly fitted or top-dose-only effect; inactive = flat fitted curve, though single readings scatter.
Your answer must be one of the following: active, inactive

Input: Dear colleague, could you share the recorded outcome for OCC1O[C@H](O[C@H]2C(O)C(O)C(O)O[C@@H]2CO)C(O)C(O)C1O (some centres undefined) when you have a moment?
Output: inactive

Input: Dear colleague, could you share the recorded outcome for C=C(CC[C@@H](C)[C@H]1CCC2[C@]1(C)CC[C@]13C[C@@]14CCC(OC(=O)/C=C/c1ccc(O)c(OC)c1)C(C)(C)[C@@H]4CC[C@@]23C)C(C)C (some centres undefined) when you have a moment?
Output: inactive

Input: Dear colleague, could you share the recorded outcome for CC(C)C[C@@H](NC(=O)[C@@H](Cc1ccccc1)NC(=O)c1cnccn1)B(O)O when you have a moment?
Output: active

Input: Dear colleague, could you share the recorded outcome for CC1CCC(O)C/C1=C\C=C1/CCCC2(C)C1CCC2C(C)/C=C/C(C)C(C)C (centres undefined) when you have a moment?
Output: inactive

Input: Dear colleague, could you share the recorded outcome for CNC1C(O)C(OC2C(N)CC(N)C(OC3OC(CN)=CCC3N)C2O)OCC1(C)O (centres undefined) when you have a moment?
Output: inactive

Input: Dear colleague, could you share the recorded outcome for C[C@]12CC[C@@H]3c4ccc(O)cc4CC[C@H]3[C@@H]1CCC2OC(=O)CCC1CCCC1 (some centres undefined) when you have a moment?
Output: inactive

Input: Dear colleague, could you share the recorded outcome for O=C1Oc2ccccc2C(=O)C1C(CC(O)c1ccc(-c2ccc(Br)cc2)cc1)c1ccccc1 (centres undefined) when you have a moment?
Output: inactive

Input: Dear colleague, could you share the recorded outcome for CC1(C)OC[C@@H]2O[C@@]3(C(=O)O)OC(C)(C)O[C@@H]3[C@@H]2O1 when you have a moment?
Output: inactive

Input: Dear colleague, could you share the recorded outcome for CO/N=C(/C(=O)N[C@@H]1C(=O)N2C(C(=O)O)=C(C[n+]3ccc(N)n3CCO)CS[C@H]12)c1csc(N)n1 when you have a moment?
Output: inactive

Input: Dear colleague, could you share the recorded outcome for CCCC[C@H](O)c1ccccc1 when you have a moment?
Output: inactive

Input: Dear colleague, could you share the recorded outcome for CCCCC/C(C=O)=C/c1ccccc1 when you have a moment?
Output: inactive

Input: Dear colleague, could you share the recorded outcome for C[C@@H]1CCN(C(=O)[C@H](CCCNC(=N)N)NS(=O)(=O)c2cccc3c2NC[C@H](C)C3)[C@@H](C(=O)O)C1 when you have a moment?
Output: inactive

Input: Dear colleague, could you share the recorded outcome for Cc1ccc(S(=O)(=O)NC(=O)NC(C)Cc2ccccc2)cc1 (centres undefined) when you have a moment?
Output: inactive

Input: Dear colleague, could you share the recorded outcome for Cc1cncc(C(=O)O)[n+]1[O-] when you have a moment?
Output: inactive

Input: Dear colleague, could you share the recorded outcome for C[S+](C)CC[C@H](N)C(=O)O when you have a moment?
Output: inactive

Input: Dear colleague, could you share the recorded outcome for O=C1[C@@H]2C[C@@H]3C[C@H]1C[C@@](O)(C3)C2 when you have a moment?
Output: inactive

Input: Dear colleague, could you share the recorded outcome for COc1ccc(S(=O)(=O)N2c3ccc(Cl)cc3[C@](O)(c3ccccc3Cl)[C@@H]2C(=O)N2CCC[C@H]2C(N)=O)cc1OC when you have a moment?
Output: inactive

Input: Dear colleague, could you share the recorded outcome for CC(CCC(=O)O)C1CCC2C3C(=O)C[C@@H]4CC(=O)CC[C@@]4(C)C3CC(=O)[C@]12C (some centres undefined) when you have a moment?
Output: inactive

Input: Dear colleague, could you share the recorded outcome for C=NC(C(=O)NC1C(=O)N2C1SC(C)(C)C2C(=O)O)c1ccccc1 (centres undefined) when you have a moment?
Output: inactive

----------
# Subject Of Test: Cytochrome P450 2C19 (Homo sapiens) (UniProt P33261)
# Sequence (P33261 whole entry, looked up): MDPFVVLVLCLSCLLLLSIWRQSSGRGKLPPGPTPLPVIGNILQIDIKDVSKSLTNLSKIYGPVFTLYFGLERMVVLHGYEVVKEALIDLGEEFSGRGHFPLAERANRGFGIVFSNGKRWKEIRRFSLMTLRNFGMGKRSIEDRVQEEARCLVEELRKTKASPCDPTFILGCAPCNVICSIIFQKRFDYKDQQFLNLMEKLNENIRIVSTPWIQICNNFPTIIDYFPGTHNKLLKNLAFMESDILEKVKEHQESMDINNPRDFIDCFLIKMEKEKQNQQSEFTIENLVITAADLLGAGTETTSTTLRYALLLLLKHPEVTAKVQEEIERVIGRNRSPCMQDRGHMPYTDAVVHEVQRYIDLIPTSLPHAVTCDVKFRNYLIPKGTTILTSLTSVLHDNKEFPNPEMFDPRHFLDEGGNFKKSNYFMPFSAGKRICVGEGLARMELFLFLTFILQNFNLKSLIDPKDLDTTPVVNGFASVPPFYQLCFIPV
# Test Summary: qHTS Assay for Inhibitors and Substrates of Cytochrome P450 2C19 (AID 899); also: % is scaled to controls: 0 for no effect and ±100 for the full control effect; nearly all actives have a fitted effect of over 60% in size
# Condition Summary: recombinant CYP2C19, luciferin-H EGE luminescence; series mostly up to 57.1 µM
Inconclusive results are not listed. Calls of active or inactive are those of the source. Calls come from the whole dose curve; as a rule, active = well fitted inhibition curve with a large enough effect; inconclusive = small, poorly fitted or top-dose-only effect; inactive = no such curve, though single readings can be large or run the other way.

[
  {
    "Compound": "CC[C@@H]1[C@H]2CCCCN3[C@@H]2[C@@H](C[C@H]3[C@@H]2C[C@H](C)C(=O)O2)[C@@H]2[C@H]1OC(=O)[C@H]2C",
    "outcome": "inactive"
  },
  {
    "Compound": "CC(C)C[C@@H](CC(=O)N[C@@H](CCC(=O)O)CC(=O)O)NC(=O)[C@@H]1CCCC[C@H]1NC(=O)C[C@@H](NC(=O)C[C@H](Cc1ccccc1)NC(=O)[C@@H]1CCCC[C@H]1N)C(C)C",
    "outcome": "inactive"
  },
  {
    "Compound": "CCCCCCN(C(=O)CCCCCN1C(=O)NC(c2ccc(-c3ccccc3)cc2)C(C(=O)OCc2ccccc2)=C1C)C(C(=O)NCCCC)c1ccc(OCC(=O)OC)c(C(=O)OC)c1 (stereo not drawn)",
    "outcome": "inactive"
  }
]

// provenance: PubChem BioAssay (NCATS)
